Target: UniProt:P04798
Sequence (P04798 whole entry): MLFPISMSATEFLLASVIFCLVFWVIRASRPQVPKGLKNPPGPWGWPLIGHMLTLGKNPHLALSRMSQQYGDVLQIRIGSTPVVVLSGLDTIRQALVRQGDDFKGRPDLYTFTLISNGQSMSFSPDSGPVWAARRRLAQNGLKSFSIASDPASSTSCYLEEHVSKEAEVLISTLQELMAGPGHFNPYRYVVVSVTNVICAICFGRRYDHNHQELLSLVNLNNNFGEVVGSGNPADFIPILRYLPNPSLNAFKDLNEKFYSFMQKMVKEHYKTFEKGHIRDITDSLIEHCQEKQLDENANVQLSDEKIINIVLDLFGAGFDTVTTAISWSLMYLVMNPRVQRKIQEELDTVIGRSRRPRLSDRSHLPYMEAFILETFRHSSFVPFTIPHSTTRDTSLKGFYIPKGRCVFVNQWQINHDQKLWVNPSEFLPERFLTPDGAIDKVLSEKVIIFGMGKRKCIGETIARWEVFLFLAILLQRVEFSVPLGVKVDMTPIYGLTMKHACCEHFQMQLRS
Assay: Inhibition of recombinant human CYP1A1 using 7-ethyl-0-resorufin as substrate incubated for 30 mins in presence of NADPH by EROD assay
Quantity Kind: IC50 (nM)

* CCc1sc(-c2csc(Nc3ccc(N4CCOCC4)cc3)n2)nc1-c1ccncc1 | 153
* Cc1sc(-c2csc(Nc3ccc(N4CCOCC4)cc3)n2)nc1-c1ccncc1 | 276
* COc1ccc(-c2csc(-c3csc(Nc4cc(OC)cc(OC)c4)n3)n2)cc1 | 823
* Clc1cc(Cl)cc(Nc2nc(-c3nc(-c4ccccc4)c(-c4ccccc4)s3)cs2)c1 | 1920

Ref: ChEMBL document CHEMBL5236635
